Please provide measured binary diffusion coefficient for the entries that follow.
Test: φn = volume fraction of the nth substance listed
Conditions: 298.2 K; 101 kPa; Liquid; Camera Imaging; φ1 = 0.5
Answers are plain numbers, in m2/s.

Reference set, count: 6
{"columns": ["compound", "binary diffusion coefficient (m2/s)"],
 "data": [
  ["Cn1cc[n+](C)c1.F[B-](F)(F)F [1,3-dimethyl-1H-imidazolium tetrafluoroborate] + O", "6.87e-10"],
  ["CCn1cc[n+](C)c1.N#CN=C=[N-] [1-ethyl-3-methylimidazolium dicyanamide] + O", "7.25e-10"],
  ["CCn1cc[n+](C)c1.[O-][Cl+3]([O-])([O-])[O-] [1-ethyl-3-methylimidazolium perchlorate] + O", "1.93e-10"],
  ["CCCCn1cc[n+](C)c1.F[B-](F)(F)F [1-butyl-3-methylimidazolium tetrafluoroborate] + O", "1.24e-10"],
  ["CCn1cc[n+](C)c1.F[B-](F)(F)F [1-ethyl-3-methylimidazolium tetrafluoroborate] + O", "3.42e-10"],
  ["CCCCn1cc[n+](C)c1.N#CN=C=[N-] [1-butyl-3-methylimidazolium dicyanamide] + O", "2.53e-10"]
]}

Returns the measured binary diffusion coefficient for the input compound. Input: CCCCn1cc[n+](C)c1.O=[N+]([O-])[O-] [1-butyl-3-methylimidazolium nitrate] + O
3.13e-10
